- Test system: 616215-338-R-J1-PDC tumor spheroids, viability;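 note: spheroids exposed to agents for 7 days before readout; percent viability relative to DMSO vehicle control wells taken as 100%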
- Assay Details: Anticancer human tumor 616215-338-R-J1-PDC patient-derived colon adenocarcinoma cell line growth inhibition [GQUAD]
- Condition Parameters: second compound 3.16 µM; first compound 1 µM; active compounds read low; spheroids with HUVEC and MSC
Below, each of the compounds is paired with its reported viability, T/C value.

Compound	Target Under Test	viability, T/C / %
COc1ncnc(C2CC2)c1-c1ncc2cnn(Cc3ccc(-c4nc(C(F)(F)F)cn4C(C)C)cc3)c2n1 + Cc1[nH]c2ccc(F)cc2c1-c1nc2c3cccnc3c3ncccc3c2[nH]1	616215-338-R-J1-PDC tumor spheroids, viability	105
O=C(NO)c1cnc(N2CCN(S(=O)(=O)c3ccc4ccccc4c3)CC2)nc1 + Cc1[nH]c2ccc(F)cc2c1-c1nc2c3cccnc3c3ncccc3c2[nH]1	616215-338-R-J1-PDC tumor spheroids, viability	2.81
COc1ccc([C@@H](O)c2cc(-c3ncnc4cc(N5CCOCC5)ccc34)c(F)cc2Cl)nn1 + Cc1cnc(CNC(=O)c2c(=O)c3ccc(N4CCCN(C)CC4)nc3n3c2sc2ccccc23)cn1	616215-338-R-J1-PDC tumor spheroids, viability	25
Nc1ccn(C2OC(CO)C(O)C2(F)F)c(=O)n1 (stereo unspecified) + Cc1[nH]c2ccc(F)cc2c1-c1nc2c3cccnc3c3ncccc3c2[nH]1	616215-338-R-J1-PDC tumor spheroids, viability	13.8
COc1cccc2c1C(=O)c1c(O)c3c(c(O)c1C2=O)CC(O)(C(=O)CO)CC3OC1CC(N)C(O)C(C)O1 (stereo unspecified) + Cc1[nH]c2ccc(F)cc2c1-c1nc2c3cccnc3c3ncccc3c2[nH]1	616215-338-R-J1-PDC tumor spheroids, viability	39
O=C(NO)c1cnc(N2CCN(S(=O)(=O)c3ccc4ccccc4c3)CC2)nc1 + Cc1cnc(CNC(=O)c2c(=O)c3ccc(N4CCCN(C)CC4)nc3n3c2sc2ccccc23)cn1	616215-338-R-J1-PDC tumor spheroids, viability	0.07

Hello, the source for this data is PubChem BioAssay AID2060493, in case you need it.
